System: SNB-75
test: Growth inhibition of human SNB75 cells at 10 uM after 48 hrs by coulter counter method
Assay type: functional
run.conditions: SNB-75, 48 h, read-out: GI
measurement.type: inhibition of growth at 10 µM (%)
Give bare numbers, in %.

Below, each entry is followed by its recorded inhibition of growth at 10 µM result.
The recorded inhibition of growth at 10 µM with SNB-75 for `O=c1c2ccccc2nc(-n2ccnc2)n1-c1ccccc1` was 30

The recorded inhibition of growth at 10 µM with SNB-75 for `CCn1c(-n2ccnc2)nc2ccccc2c1=O` was 30

The recorded inhibition of growth at 10 µM with SNB-75 for `COc1ccc(-n2c(SC)nc3ccccc3c2=O)cc1` was 30

The recorded inhibition of growth at 10 µM with SNB-75 for `COc1ccc(-c2nnc(Nc3nc4ccccc4c(=O)n3-c3ccccc3)s2)cc1` was 30

The recorded inhibition of growth at 10 µM with SNB-75 for `COc1ccc(C(=O)CSc2nc3ccccc3c(=O)n2-c2ccc(Cl)cc2)cc1` was 71.1

The recorded inhibition of growth at 10 µM with SNB-75 for `O=c1c2ccccc2nc(Nc2cc(O)nc(S)n2)n1-c1ccc(Cl)cc1` was 30

Give inhibition of growth at 10 µM for each listed item.
1. CCn1c(SCC(=O)c2ccc(OC)cc2)nc2ccccc2c1=O
2. CSc1nc2ccccc2c(=O)n1-c1ccc(Cl)cc1
3. COc1ccc(C2NC(=O)Nc3ccc(C(=O)Nc4ccccn4)cc32)cc1 (stereo unspecified)

*A*
[30, 30, 30]

Give inhibition of growth at 10 µM for each listed item.
1. O=c1c2ccccc2nc(-n2ccnc2)n1-c1ccc(Cl)cc1
2. COc1ccc(-n2c(SCC(=O)c3ccc(Cl)cc3)nc3ccccc3c2=O)cc1

*A*
1: 30; 2: 47.4

Cited source for all entries: ChEMBL document CHEMBL1629431
